Data provenance is ChEMBL document CHEMBL2434844.

Tested on: Aspergillus flavus
Experiment: Antifungal activity against Aspergillus flavus ATCC 11495 at 10 mg/disc after 48 hrs by disc-diffusion method
Assay type: functional
Active and inactive are the calls of the source. The calls are words filed in the database; no cut-off is given here.

[
  {
    "TEST SMILES": "N#Cc1c(-c2ccc(Br)cc2)[nH]c(=S)n2c(=O)[nH]nc12",
    "diameter of the inhibition zone (DIZ)": "inactive"
  },
  {
    "TEST SMILES": "N#Cc1c(-c2ccc(Br)cc2)[nH]c(=S)n2c(=S)[nH]nc12",
    "diameter of the inhibition zone (DIZ)": "inactive"
  },
  {
    "TEST SMILES": "N#Cc1c(-c2ccc(F)cc2)[nH]c(=S)n2c(=O)c(=O)[nH]nc12",
    "diameter of the inhibition zone (DIZ)": "18 mm"
  },
  {
    "TEST SMILES": "N#Cc1c(-c2ccc(F)cc2)[nH]c(=S)n2ncnc12",
    "diameter of the inhibition zone (DIZ)": "7 mm"
  },
  {
    "TEST SMILES": "COc1cc(-c2[nH]c(=S)n3nc(C)nc3c2C#N)cc(OC)c1OC",
    "diameter of the inhibition zone (DIZ)": "7 mm"
  },
  {
    "TEST SMILES": "COc1cc(-c2[nH]c(=S)nc(NN)c2C#N)cc(OC)c1OC",
    "diameter of the inhibition zone (DIZ)": "inactive"
  },
  {
    "TEST SMILES": "COc1cc(-c2[nH]c(=S)nc(-n3nc(C)cc3C)c2C#N)cc(OC)c1OC",
    "diameter of the inhibition zone (DIZ)": "inactive"
  },
  {
    "TEST SMILES": "N#Cc1c(-c2ccc(F)cc2)[nH]c(=S)n2c(=O)[nH]nc12",
    "diameter of the inhibition zone (DIZ)": "inactive"
  },
  {
    "TEST SMILES": "COc1cc(-c2[nH]c(=S)n3c(=O)[nH]nc3c2C#N)cc(OC)c1OC",
    "diameter of the inhibition zone (DIZ)": "inactive"
  },
  {
    "TEST SMILES": "COc1ccc(/C=N/Nc2nc(=S)[nH]c(-c3cc(OC)c(OC)c(OC)c3)c2C#N)cc1",
    "diameter of the inhibition zone (DIZ)": "15 mm"
  }
]
